- ASSAYED_SYSTEM: Toll-like receptor 4 (Homo sapiens)
- Sequence (O00206 whole entry): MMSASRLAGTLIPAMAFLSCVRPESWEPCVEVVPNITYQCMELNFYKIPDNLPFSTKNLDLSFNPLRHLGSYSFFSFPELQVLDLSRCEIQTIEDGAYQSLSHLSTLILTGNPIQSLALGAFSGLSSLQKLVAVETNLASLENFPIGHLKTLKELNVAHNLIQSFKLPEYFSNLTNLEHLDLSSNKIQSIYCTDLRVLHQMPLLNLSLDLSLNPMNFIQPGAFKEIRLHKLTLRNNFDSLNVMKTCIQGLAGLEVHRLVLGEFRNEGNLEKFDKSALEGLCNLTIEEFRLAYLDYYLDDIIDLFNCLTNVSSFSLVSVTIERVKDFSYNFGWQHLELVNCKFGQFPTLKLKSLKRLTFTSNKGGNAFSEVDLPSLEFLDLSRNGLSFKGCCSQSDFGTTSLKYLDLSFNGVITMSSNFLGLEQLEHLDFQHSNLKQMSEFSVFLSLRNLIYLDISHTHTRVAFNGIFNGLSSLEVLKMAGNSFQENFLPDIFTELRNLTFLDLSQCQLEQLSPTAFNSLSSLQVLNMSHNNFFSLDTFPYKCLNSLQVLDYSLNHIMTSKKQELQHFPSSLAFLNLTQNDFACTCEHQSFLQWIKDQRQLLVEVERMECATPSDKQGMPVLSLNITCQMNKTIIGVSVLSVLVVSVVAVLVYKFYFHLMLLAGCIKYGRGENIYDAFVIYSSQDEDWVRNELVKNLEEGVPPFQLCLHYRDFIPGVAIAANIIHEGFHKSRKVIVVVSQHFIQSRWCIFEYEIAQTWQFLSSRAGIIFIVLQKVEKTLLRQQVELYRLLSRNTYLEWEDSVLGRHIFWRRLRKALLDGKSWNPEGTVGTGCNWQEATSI
- MEASUREMENT_PROTOCOL: Agonist activity at TLR4 in human MONO-MAC-6 cells assessed as induction of MIP-1beta release incubated for 24 hrs by ELISA
- Format: cell-based
OBSERVED_PROPERTY: EC50 (nM)
Answers are plain numbers, in nM.

{"CHEMICAL_STRUCTURE": "CCCCCCCCCCCCCC(=O)O[C@H](CCCCCCCCCCC)CC(=O)O[C@@H]1[C@@H](NC(=O)C[C@H](CCCCCCCCCCC)OC(=O)CCCCCCCCCCCCC)[C@H](OC[C@H]2O[C@H](O)[C@H](NC(=O)C[C@H](O)CCCCCCCCCCC)[C@@H](OC(=O)C[C@H](O)CCCCCCCCCCC)[C@@H]2O)O[C@H](CO)[C@H]1OP(=O)(O)O", "OBSERVED_PROPERTY": "EC50", "SCALE_UNIT": "nM", "RESULT_NUMBER": 0.99}
{"CHEMICAL_STRUCTURE": "CCCCCCCCCCC[C@H](CC(=O)NCCO[C@@H]1O[C@H](CO)[C@@H](OS(=O)(=O)O)[C@@H](NC(=O)C[C@@H](CCCCCCCCCCC)OC(=O)CCCCCCCCC)[C@H]1NC(=O)C[C@@H](CCCCCCCCCCC)OC(=O)CCCCCCCCC)OC(=O)CCCCCCCCC.CCN(CC)CC", "OBSERVED_PROPERTY": "EC50", "SCALE_UNIT": "nM", "RESULT_NUMBER": 39.5}
{"CHEMICAL_STRUCTURE": "CCCCCCCCCCCCCCCC(=O)O[C@H](CCCCCCCCCCC)CC(=O)N[C@@H]1[C@@H](O)[C@H](O)[C@@H](CO[C@@H]2O[C@H](CO)[C@@H](OP(=O)(O)O)[C@H](OC(=O)C[C@@H](CCCCCCCCCCC)OC(=O)CCCCCCCCCCCCC)[C@H]2NC(=O)C[C@@H](CCCCCCCCCCC)OC(=O)CCCCCCCCCCC)O[C@@H]1O", "OBSERVED_PROPERTY": "EC50", "SCALE_UNIT": "nM", "RESULT_NUMBER": 6.37}
{"CHEMICAL_STRUCTURE": "CCCCCCCCCCC[C@H](CC(=O)NCCO[C@@H]1O[C@H](CO)[C@@H](OP(=O)(O)O)[C@H](OC(=O)C[C@@H](CCCCCCCCCCC)OC(=O)CCCCCCCCC)[C@H]1NC(=O)C[C@@H](CCCCCCCCCCC)OC(=O)CCCCCCCCC)OC(=O)CCCCCCCCC", "OBSERVED_PROPERTY": "EC50", "SCALE_UNIT": "nM", "RESULT_NUMBER": 6.75}
{"CHEMICAL_STRUCTURE": "CCCCCCCCCCC[C@H](CC(=O)N[C@H]1[C@H](OC[C@H](NC(=O)C[C@@H](CCCCCCCCCCC)OCCCCCCCCCC)C(=O)O)O[C@H](CO)[C@@H](OS(=O)(=O)O)[C@H]1NC(=O)C[C@@H](CCCCCCCCCCC)OCCCCCCCCCC)OCCCCCCCCCC.CCN(CC)CC", "OBSERVED_PROPERTY": "EC50", "SCALE_UNIT": "nM", "RESULT_NUMBER": 0.65}

I have 3 molecules here; please give me EC50 for each one.
1. CCCCCCCCCCC[C@H](CC(=O)N[C@H]1[C@H](OC[C@H](NC(=O)C[C@@H](CCCCCCCCCCC)OCCCCCCCCCC)C(=O)O)O[C@H](CO)[C@@H](OP(=O)(O)O)[C@@H]1OC(=O)C[C@@H](CCCCCCCCCCC)OCCCCCCCCCC)OCCCCCCCCCC
2. CCCCCCCCCCC[C@H](CC(=O)N[C@H]1[C@H](OC[C@H](NC(=O)C[C@@H](CCCCCCCCCCC)OCCCCCCCCCC)C(=O)O)O[C@H](CO)[C@@H](OP(=O)(O)O)[C@H]1NC(=O)C[C@@H](CCCCCCCCCCC)OCCCCCCCCCC)OCCCCCCCCCC.CCN(CC)CC
3. CCCCCCCCCCC[C@H](CC(=O)NCCO[C@@H]1O[C@H](CO)[C@@H](OP(=O)(O)O)[C@@H](NC(=O)C[C@@H](CCCCCCCCCCC)OC(=O)CCCCCCCCC)[C@H]1NC(=O)C[C@@H](CCCCCCCCCCC)OC(=O)CCCCCCCCC)OC(=O)CCCCCCCCC.CCN(CC)CC

A)
1. 0.06
2. 0.38
3. 1.65
